Cited source: ChEMBL document CHEMBL3525922

experimental protocol: Metabolic stability in human intestinal S9 fraction assessed as compound remaining at 50 to 1000 nM after 60 mins by HPLC-MS/MS analysis
Assay type: ADME, Intestine
measurement conditions: read-out: Stability
Form field: remaining at 1 h, up to 1 µM (one value per entry).

O=C1Cc2cc(CCN3CCN(c4nsc5ccccc45)CC3)c(Cl)cc2N1    > 90%

Using the record for COC(=O)Nc1nc2ccc(C(=O)c3ccccc3)cc2[nH]1 , report its remaining at 1 h, up to 1 µM. > 90%

###

tested target: carbonyl reductase (Carbonyl reductase [NADPH] 1) (Homo sapiens)
Sequence (P16152 whole entry): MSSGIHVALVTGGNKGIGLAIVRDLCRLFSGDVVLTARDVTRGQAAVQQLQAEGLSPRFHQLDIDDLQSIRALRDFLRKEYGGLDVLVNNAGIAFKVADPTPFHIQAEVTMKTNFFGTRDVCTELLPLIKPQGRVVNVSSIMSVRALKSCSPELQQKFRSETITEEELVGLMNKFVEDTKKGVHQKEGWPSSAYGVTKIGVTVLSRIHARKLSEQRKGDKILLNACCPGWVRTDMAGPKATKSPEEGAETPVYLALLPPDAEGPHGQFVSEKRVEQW
experimental protocol: Activity of recombinant carbonyl reductase (unknown origin)
Type: ADME
quantity measured: Km (µM)
# unit: µM | format: bare number

Item under review: O=C(CCCN1CCC(O)(c2ccc(Cl)cc2)CC1)c1ccc(F)cc1 [HALOPERIDOL] . Reported Km? 1200

###

tested target: carbonyl reductase (Carbonyl reductase [NADPH] 1) (Homo sapiens, UniProt P16152)
experimental protocol: Activity of carbonyl reductase in liver cytosol (unknown origin) assessed as enzyme-mediated drug metabolism
Assay type: ADME, tissue-based
quantity measured: Km (µM)
Write down the numeric answer in µM and omit the unit.

Entry O=C(CCCN1CCC(O)(c2ccc(Cl)cc2)CC1)c1ccc(F)cc1 has what Km? 250

###

experimental protocol: Metabolic stability in human intestinal S9 fraction assessed as compound remaining at 50 to 1000 nM after 60 mins by HPLC-MS/MS analysis in presence of NADH
Parameters: dose or concentration left out as unconfirmed
quantity measured: remaining at 1 h

Data request, read-out remaining at 1 h, for COC(=O)Nc1nc2ccc(C(=O)c3ccccc3)cc2[nH]1 [MEBENDAZOLE] > 90%
